Assay: in vivo
Settings: mouse, po
measured_property: LD50

Observe how each entry below is paired with its result.
compound="O=S1(=O)CCN(c2ccc(OC[C@H]3CO[C@](Cn4ccnc4)(c4ccc(Cl)cc4Cl)O3)cc2)CC1 (relative stereo)" measured_property=LD50 result="≥ 4000 mg/kg"
compound="[O-][S+]1CCN(c2ccc(OC[C@H]3CO[C@](Cn4ccnc4)(c4ccc(Cl)cc4Cl)O3)cc2)CC1 (relative stereo)" measured_property=LD50 result="~1000 mg/kg"
compound="Clc1ccc([C@@]2(Cn3cncn3)OC[C@H](COc3ccc(N4CCSCC4)cc3)O2)c(Cl)c1 (relative stereo)" measured_property=LD50 result="≥ 5000 mg/kg"
compound="O=S1(=O)CCN(c2ccc(OC[C@H]3CO[C@](Cn4cnnc4)(c4ccc(Cl)cc4Cl)O3)cc2)CC1 (relative stereo)" measured_property=LD50 result="≥ 4000 mg/kg"
compound="[O-][S+]1CCN(c2ccc(OC[C@H]3CO[C@](Cn4cncn4)(c4ccc(Cl)cc4Cl)O3)cc2)CC1 (relative stereo)" measured_property=LD50 result="~4000 mg/kg"

# per-item lookup of LD50; items listed below
1. O=S1(=O)CCN(c2ccc(OC[C@H]3CO[C@](Cn4cncn4)(c4ccc(Cl)cc4Cl)O3)cc2)CC1 (relative stereo)
2. Clc1ccc([C@@]2(Cn3ccnc3)OC[C@H](COc3ccc(N4CCSCC4)cc3)O2)c(Cl)c1 (relative stereo)

≥ 5000 mg/kg
~1000 mg/kg
